meta.source: patent US4537895A

# System: catalepsy induced by tetrabenazine
# Test Summary: Test 4: inhibition of tetrabenazine-induced catalepsy
# Assay type: in vivo
# Condition Parameters: LD50 / ED of Test 4
Where a name gives a salt, the structure may show the parent alone.
Use 9 as the dividing line for TI (Test 4), LD/ED quotient, with the line itself on the True side and lower values as False.

These recorded examples may help you get a feel for the data.
Molecule	Label Class
CN1Cc2c(N)cccc2C(c2ccccc2)C1 (stereo not shown) [Nomifensine, reference compound]	True
CCOC(=O)Nc1cccc2c1CN(C)CC2c1ccc(Cl)cc1 (stereo not shown)	True
CCNCC(=O)Nc1cccc2c1CN(C)CC2c1ccc(C)cc1 (stereo not shown) [Compound H, maleate]	False
CCCCNC(=O)Nc1cccc2c1CN(C)CC2c1ccc(C)cc1 (stereo not shown)	True
CCCCNC(=O)Nc1cccc2c1CN(C)CC2c1ccc(Cl)cc1 (stereo not shown)	True

For the next question, use this molecule.
Exam item: Tell me whether TI (Test 4), LD/ED quotient is at least 9 here: CCNCC(=O)Nc1cccc2c1CN(C)CC2c1ccc(Cl)cc1 (stereo not shown)
Marked response: True
